Listed compounds paired with reported TGI
# Test system: SK-MEL-5 melanoma
# experiment: NCI tumour cell line growth inhibition, 48 h

API: value(readout=TGI, system=SK-MEL-5 melanoma) for record COc1ccc(C2=C(c3ccc(OC)cc3)C(=O)N3CCCC3C2)cc1 (stereo unspecified) 84.3 µM

Please answer likewise for `CCCOC(=O)CNC(=O)OC(C)(C)C` > 100 µM

Please answer likewise for COc1cc2c(cc1OC)C1C[C@]3(CCN1CC2)C(=O)N(c1ccccc1)C(=O)N3C(C)=O (stereo partly specified) > 200 µM

Please answer likewise for COc1ccc(-c2nsc3c2NC(=O)CC3c2cccc(OC)c2)cc1 (stereo unspecified) 17.5 µM

Please answer likewise for `CSc1ccccc1C#C/C=C\C#Cc1ccccc1N` 16.4 µM

Please answer likewise for Nc1n[nH]c(=O)c2c1c(I)cn2C1OC(CO)C(O)C1O (stereo unspecified) 13.6 µM
